Just for reference, ChEMBL document CHEMBL5442219 is where these values come from.

Measured Target: Alpha-2A adrenergic receptor (Homo sapiens)
Sequence (whole entry): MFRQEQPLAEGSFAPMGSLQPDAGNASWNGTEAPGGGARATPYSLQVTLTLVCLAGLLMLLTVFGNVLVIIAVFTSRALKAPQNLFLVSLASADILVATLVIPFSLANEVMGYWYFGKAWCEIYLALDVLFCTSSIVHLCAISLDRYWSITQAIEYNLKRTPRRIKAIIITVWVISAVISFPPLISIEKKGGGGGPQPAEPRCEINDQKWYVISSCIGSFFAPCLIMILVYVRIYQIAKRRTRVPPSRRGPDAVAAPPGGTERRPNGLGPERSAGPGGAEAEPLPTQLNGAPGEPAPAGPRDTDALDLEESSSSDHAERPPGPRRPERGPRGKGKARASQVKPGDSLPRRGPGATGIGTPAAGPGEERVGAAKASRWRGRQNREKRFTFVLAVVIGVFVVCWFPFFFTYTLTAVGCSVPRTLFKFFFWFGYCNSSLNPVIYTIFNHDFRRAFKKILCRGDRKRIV
Stated Conditions: Compound concentration 10 µM
Description: PDSP Primary Binding target: ADRA2A - Compounds are tested at 10 uM concentration, plate are incubated at room temperature in the dark for 90 minutes. Reaction are stopped by vacuum filtration onto 0.3% polyethyleneimine soaked filter mats using Filtermate harvester. Scintilation cocktail is then melted onto microwave-dried filters on a hot plate and the radio activity is counted in Microbia counter.
Listed here: items and their measured inhibition.
Quick reminder: number only, in %, skip the unit.

• N#Cc1c(N)nc(SCC(N)=O)c(C#N)c1-c1ccc(OCC2CC2)cc1 = -1.71
• C[C@]1(C(=O)N(CCCC(=O)O)Cc2cccc(Cl)c2)CCN1C(=O)c1csc2ccccc12 = 10.9
• CN1CCC(=C2c3ccccc3CC(=O)c3sccc32)CC1 = 80.9
• N=C(N)SCCc1c[nH]cn1 = 51.5
• Cc1csc2c(N[C@@H](C)CN3CCN(S(=O)(=O)c4ccc(Cl)c(Cl)c4)CC3)ncnc12 = -8.93
• CN(C)C(=O)N[C@H]1CC[C@H](CCN2CCN(c3cccc(Cl)c3Cl)CC2)CC1 = 95
• COc1ccc(OC(F)(F)F)cc1CN[C@H]1CCCN[C@H]1c1ccccc1 = 38.4
• CCN(CC)CCCCC1CCN(CC(=O)N2c3ccccc3C(=O)Nc3cccnc32)CC1 = 12.9
• Cc1cccc(NC(=O)N[C@@H]2N=C(c3ccccc3)c3ccccc3N(C)C2=O)c1 = 13.9
• COc1ccccc1N1CCN(CCCCNC(=O)c2ccc3ccccc3c2)CC1 = 100

If you can, please state the reported inhibition value of COc1ccc(C2(O)OC(=O)C(c3ccc4c(c3)OCO4)=C2Cc2cc(OC)c(OC)c(OC)c2)cc1 (stereo not given) .
4.57

If you can, please state the reported inhibition value of `COc1cc(-n2cnc3cc(-c4ccc(Cl)cc4)sc3c2=O)ccc1OCCN1CCCC1` .
70.6

If you can, please state the reported inhibition value of `CCCCN1CCC(COC(=O)c2cc(Cl)c(N)c3c2OCCO3)CC1` .
66.1

If you can, please state the reported inhibition value of `Cc1c(C(=O)NC2CCCCC2)sc2nc3ccc(N)cc3n12` .
-6.44

If you can, please state the reported inhibition value of `CN1CCN(c2ccc(Nc3c4ccccc4nc4ccccc34)cc2)CC1` .
70.5

If you can, please state the reported inhibition value of `NC[C@H](O)c1ccc(O)c(O)c1` .
61.9

If you can, please state the reported inhibition value of `Brc1c(NC2=NCCN2)ccc2nccnc12` .
103

If you can, please state the reported inhibition value of `N#Cc1c[nH]c2c(C(=O)N3CCN(CCc4ccc(F)cc4)CC3)cccc12` .
-0.21

If you can, please state the reported inhibition value of C[C@@H](NCCc1ccc(O)cc1)[C@@H](O)c1ccc(O)cc1 (relative stereo) .
-0.38

If you can, please state the reported inhibition value of `NCCc1cn(S(=O)(=O)c2c(Cl)nc3sccn23)c2ccccc12` .
93.4

If you can, please state the reported inhibition value of `Cc1cc(C)cc(-c2cnc3cc(Cl)c(-c4cccc(O)c4)cc3c2OCCCN)c1` .
64.9

If you can, please state the reported inhibition value of `O=C(Cc1ccc(Cl)c(Cl)c1)N1CCCC[C@H]1CN1CCCC1` .
30.3

If you can, please state the reported inhibition value of `CCc1nn(CCCN2CCN(c3cccc(Cl)c3)CC2)c(=O)n1CCOc1ccccc1` .
91.1

If you can, please state the reported inhibition value of `c1cc(CN2CCCNCCNCCCNCC2)ccc1CN1CCCNCCNCCCNCC1` .
7.87

If you can, please state the reported inhibition value of `C=CCN1C[C@H](C)N([C@H](c2ccc(C(=O)N(CC)CC)cc2)c2cccc(O)c2)C[C@H]1C` .
17.8

If you can, please state the reported inhibition value of `CN(C)S(=O)(=O)c1ccc(NC(=S)N2CCC(C(O)(c3ccccc3)c3ccccc3)CC2)cc1` .
-9.2

If you can, please state the reported inhibition value of `O=C(O)COc1cccc(CN(Cc2ccc(-n3cccn3)cc2)S(=O)(=O)c2cccnc2)c1` .
-8.07

If you can, please state the reported inhibition value of `CC1(C)SSC(C)(C)[C@@H](NC(=O)[C@@H](N)Cc2ccc(O)cc2)C(=O)NCC(=O)N[C@@H](Cc2ccccc2)C(=O)N[C@H]1C(=O)O` .
13.7
